Reference for the values: ChEMBL document CHEMBL3244382

- Tested on: KB
- procedure_summary: Cytotoxicity against human KB cells
- Format: functional
- condition_details: read-out: ED50 (the source's name)
Measured EC50, listed per entry.
# unit: ng/mL | format: bare number

molecule	EC50, ng/mL
CCCS[C@]12C[C@H](OC(=O)N1)[C@@H](C)[C@@H]1O[C@@]1(C)[C@@H](OC(=O)[C@H](C)N(C)C(=O)C(C)C)CC(=O)N(C)c1cc(cc(OC)c1Cl)C/C(C)=C/C=C/[C@H]2OC	0.31
COc1cc2cc(c1Cl)N(C)C(=O)C[C@H](OC(=O)[C@H](C)N(C)C(C)=O)[C@]1(C)O[C@H]1[C@H](C)[C@@H]1C[C@@](O)(NC(=O)O1)[C@H](OC)/C=C/C=C(\C)C2	0.0061
CCO[C@]12C[C@H](OC(=O)N1)[C@@H](C)[C@@H]1O[C@@]1(C)[C@@H](OC(=O)[C@H](C)N(C)C(C)=O)CC(=O)N(C)c1cc(cc(OC)c1Cl)C/C(C)=C/C=C/[C@H]2OC	11
COc1cc2cc(c1Cl)N(C)C(=O)C[C@H](OC(=O)[C@H](C)N(C)C(C)=O)[C@]1(C)O[C@H]1[C@H](C)[C@@H]1C[C@@](OC)(NC(=O)O1)[C@H](OC)/C=C/C=C(\C)C2	0.19

Ask: Quick one: EC50 for COc1cc2cc(c1Cl)N(C)C(=O)C[C@H](OC(=O)C(C)C)[C@]1(C)O[C@H]1[C@H](C)[C@@H]1C[C@@](O)(NC(=O)O1)[C@H](OC)/C=C/C=C(\C)C2OC(C)=O (stereo not given in full) ?
Reply: 0.0015
